Target System: activated catalytic domain of protein ERK5 (Homo sapiens, UniProt Q13164)
Construct: purchased CarnaBiosciences #04-146
Sequence (Q13164 55-347 limits assumed): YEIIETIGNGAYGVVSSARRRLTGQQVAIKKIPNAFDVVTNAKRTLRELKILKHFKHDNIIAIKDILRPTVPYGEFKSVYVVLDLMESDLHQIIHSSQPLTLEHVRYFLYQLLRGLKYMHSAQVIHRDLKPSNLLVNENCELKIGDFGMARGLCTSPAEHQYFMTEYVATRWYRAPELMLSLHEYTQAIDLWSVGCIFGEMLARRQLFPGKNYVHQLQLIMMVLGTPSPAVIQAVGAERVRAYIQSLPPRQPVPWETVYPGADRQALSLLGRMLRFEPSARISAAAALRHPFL
Assay Comment: Cell-Free Assay of ERK5 Inhibition (Time-Resolved Forster Resonance Energy Transfer)
Assay type: biochemical
Study Conditions: ERK5 4 nM, 1 mM ATP, 1 μM biotinylated 4EBP1 peptide, 30 min at 37° C.; TR-FRET; mean where repeated
Parameter: IC50 (nM)
Numeric only. Scale: nM

>  <Molecule>
Nc1cc(OC(F)(F)F)ccc1C(=O)N1CCC(c2c[nH]c3ncc([C@H]4CC[C@H](O)CC4)nc23)CC1 [Example 30]

>  <IC50, nM>
39

$$$$

Give its IC50 value. Item: O=C(c1ccc(OC(F)(F)F)cc1)N1CCC(c2c[nH]c3ncc(NC4CCOC4)nc23)CC1 (single isomer, unassigned; isomer 2) [Example 33] 335

Return reported IC50; argument: O=C(c1ccc(S(F)(F)(F)(F)F)cc1)N1CCC(c2c[nH]c3ncc(C4CCOCC4)nc23)CC1 [Example 17] 578

// query IC50 value for entry Nc1cc(OC(F)(F)F)ccc1C(=O)N1CCC(c2c[nH]c3ncc(NC4CCOC4)nc23)CC1 (single isomer, unassigned; isomer 1) [Example 34] 94

Suppose we examine the molecule O=C(c1ccc(OC(F)(F)F)cc1)N1CCC(c2c[nH]c3ncc(NC4CCOC4)nc23)CC1 (single isomer, unassigned; isomer 1) [Example 32] ; what IC50 value has been reported? 361

Report IC50 for Nc1cc(OC(F)(F)F)ccc1C(=O)N1CCC(c2c[nH]c3ncc(NC4CCOCC4)nc23)CC1 [Example 39] please. 307

====

Target System: activated catalytic domain of protein ERK5 (Homo sapiens, UniProt Q13164)
Construct: purchased CarnaBiosciences #04-146
Assay Comment: Cell-Free Assay of ERK5 Inhibition (Time-Resolved Forster Resonance Energy Transfer)
Format: biochemical
Study Conditions: ERK5 4 nM, 1 mM ATP, 1 μM biotinylated 4EBP1 peptide, 30 min at 37° C.; TR-FRET; mean where repeated
Parameter: IC50 (nM)
The response must be a number in nM with no trailing unit.

Past entries and their recorded results:
>  <Molecule>
O=C(c1ccc(OC2CC2)cc1)N1CCC(c2c[nH]c3ncc(C4CCOCC4)nc23)CC1

>  <Units Of Measure>
nM

>  <IC50>
359

$$$$
>  <Molecule>
Nc1cc(OC(F)(F)F)ccc1C(=O)N1CCC(c2c[nH]c3ncc(C4CCOC4)nc23)CC1 (racemic) [Example 12]

>  <Units Of Measure>
nM

>  <IC50>
130

$$$$
>  <Molecule>
O=C(c1ccc(OC(F)(F)F)cc1)N1CCC(c2c[nH]c3ncc(N4CCOCC4)nc23)CC1

>  <Units Of Measure>
nM

>  <IC50>
1010

$$$$

Item "O=C(c1ccc(OC(F)(F)F)cc1)N1CCC(c2c[nH]c3ncc(NC4CCOCC4)nc23)CC1" has what recorded IC50? 993

Item under review: "Nc1cc(OC(F)(F)F)ccc1C(=O)N1CCC(c2c[nH]c3ncc(C4CCCCC4)nc23)CC1" . Reported IC50? 2150

IC50 for "CN1CCC(c2cnc3[nH]cc(C4CCN(C(=O)c5ccc(OC(F)(F)F)cc5)CC4)c3n2)CC1" ? 66

Which IC50 is listed for "Nc1cc(S(F)(F)(F)(F)F)ccc1C(=O)N1CCC(c2c[nH]c3ncc(C4CCN(C5CC5)CC4)nc23)CC1" ? 176

Source listed as patent US20260308157A1.
